test system: EKVX; test: NCI tumour cell line growth inhibition, 48 h
The source made the active and inactive calls. Cut-off read from the data, not from the text of the source: active = GI50 up to about 1.1 µM and inactive = higher.
Parameter GI50: see the listing below.
PARAMETER: GI50

[[record]]
compound = "O=C([O-])C(O)C(O)C(=O)O.[K+] (stereo unspecified) [POTASSIUM HYDROGENTARTRATE]"
tgt = "EKVX"
recorded_result = "> 100 µM (inactive)"

[[record]]
compound = "O=C(Cc1ccccc1)NN1C(=O)/C(=C\\c2ccccc2)S/C1=N\\c1ccccc1"
tgt = "EKVX"
recorded_result = "> 100 µM (inactive)"

[[record]]
compound = "COC(=O)Cc1cc(OC)c(OC)cc1Br"
tgt = "EKVX"
recorded_result = "> 100 µM (inactive)"

[[record]]
compound = "C=C1CC2OC2(C(=O)O[C@H]2CCC3[C@@H]4CCC5=CC(=O)CC[C@]5(C)C4CC[C@@]32C)C1=O (stereo partly specified)"
tgt = "EKVX"
recorded_result = "25.5 µM (inactive)"

[[record]]
compound = "O=c1c2cc(S(=O)(=O)O)ccc2nc(COc2ccc(Oc3ccc(Cl)cc3Cl)cc2)n1-c1ccc(Oc2ccc(Cl)cc2)cc1Cl"
tgt = "EKVX"
recorded_result = "17.6 µM (inactive)"

[[record]]
compound = "O=C(c1ccccc1)c1ccc2n[se]nc2c1"
tgt = "EKVX"
recorded_result = "56.5 µM (inactive)"

[[record]]
compound = "Oc1ccc(/C=C/c2ccc3cccc(O)c3n2)cc1O"
tgt = "EKVX"
recorded_result = "6.11 µM (inactive)"

[[record]]
compound = "Cc1cc(C)c(/N=N/c2c(O)c(S(=O)(=O)O)cc3cc(S(=O)(=O)O)ccc23)cc1C"
tgt = "EKVX"
recorded_result = "> 100 µM (inactive)"

[[record]]
compound = "CSC12c3cc(C)n(-c4ccc([N+](=O)[O-])cc4)c3CC(C)(C)CN1C(=O)C2Oc1ccccc1 (stereo unspecified)"
tgt = "EKVX"
recorded_result = "36 µM (inactive)"

[[record]]
compound = "CC(C)(C)C(=O)CC(=O)C(F)(F)C(F)(F)C(F)(F)F"
tgt = "EKVX"
recorded_result = "15.2 µM (inactive)"

[[record]]
compound = "CCOc1cn(C2CC(O)C(CO)O2)c(=O)[nH]c1=O (stereo unspecified)"
tgt = "EKVX"
recorded_result = "> 100 µM (inactive)"

[[record]]
compound = "CCN(CC)C(=O)COc1ccc(Br)cc1Br"
tgt = "EKVX"
recorded_result = "7.91 µM (inactive)"

[[record]]
compound = "O=C(O)[C@@H](NS(=O)(=O)c1ccc([N+](=O)[O-])cc1)c1ccccc1"
tgt = "EKVX"
recorded_result = "> 100 µM (inactive)"

[[record]]
compound = "c1ccc2c(OCC3CO3)ccc(OCC3CO3)c2c1 (stereo unspecified)"
tgt = "EKVX"
recorded_result = "17.4 µM (inactive)"

[[record]]
compound = "NC(=O)C(=CN1C(=O)CC(=O)NC1=S)C(N)=O"
tgt = "EKVX"
recorded_result = "> 100 µM (inactive)"

[[record]]
compound = "CN(C)c1ccc(/N=N/c2ccc3[nH]cnc3c2)cc1"
tgt = "EKVX"
recorded_result = "33.5 µM (inactive)"

[[record]]
compound = "O=C(c1ccccc1)N1CCC(CC2(c3cc4ccccc4[nH]3)OCCO2)CC1"
tgt = "EKVX"
recorded_result = "66.2 µM (inactive)"

[[record]]
compound = "CC(=O)Oc1cc2c(cc1OC(C)=O)OCC(c1ccccc1)C2 (stereo unspecified)"
tgt = "EKVX"
recorded_result = "28.3 µM (inactive)"

[[record]]
compound = "COC(=O)C1=C(c2ccc3c(c2)OCO3)O[C@H](c2ccc3c(c2)OCO3)[C@H]1COC(C)=O"
tgt = "EKVX"
recorded_result = "59 µM (inactive)"

[[record]]
compound = "CC(C)(c1ccc(C=O)o1)c1ccc(C(C)(C)c2ccc(C=O)o2)o1"
tgt = "EKVX"
recorded_result = "> 100 µM (inactive)"

[[record]]
compound = "CC(C(=O)c1ccccc1)C(c1ccccc1)N1CCOCC1 (stereo unspecified)"
tgt = "EKVX"
recorded_result = "> 100 µM (inactive)"


====

system: 786-0; assay: NCI tumour cell line growth inhibition, 48 h
The source made the active and inactive calls. Cut-off read from the data, not from the text of the source: active = GI50 up to about 1.1 µM and inactive = higher.
Labels: 1 (yes) = active, 0 (no) = inactive

[[record]]
molecule = "CN1C(=O)C2C(=O)N(Cc3ccccc3)CC(=O)N2c2cccnc21 (stereo unspecified)"
tgt = "786-0"
cat = "0 (no)"

[[record]]
molecule = "CCN(CC)C(=O)COc1ccc(Br)cc1Br"
tgt = "786-0"
cat = "0 (no)"

[[record]]
molecule = "Cc1cnc2[nH]c(-c3cccc(Cl)c3)cc(=O)c2c1"
tgt = "786-0"
cat = "1 (yes)"

[[record]]
molecule = "O=C1C(=Cc2ccco2)C(=O)C2CCCCC12 (stereo unspecified)"
tgt = "786-0"
cat = "0 (no)"

[[record]]
molecule = "COc1cc(C(c2cccc3ccccc23)N2C(=O)CCC2C(=O)NCc2ccccc2)cc(OC)c1OC (stereo unspecified)"
tgt = "786-0"
cat = "0 (no)"

[[record]]
molecule = "C[C@H](NC(=O)n1c2ccccc2c2ccccc21)C(=O)O"
tgt = "786-0"
cat = "0 (no)"

[[record]]
molecule = "N#C/C(=C(\\O)C(=O)O)c1ccc(-c2cccc3ccccc23)cc1"
tgt = "786-0"
cat = "0 (no)"

[[record]]
molecule = "O=C(/N=c1/[nH]/c(=N/C(=O)c2ccccc2)ss1)c1ccccc1"
tgt = "786-0"
cat = "0 (no)"

[[record]]
molecule = "CCCCCCNC(=O)c1cc(NCc2cc(OC)ccc2OC)ccc1O"
tgt = "786-0"
cat = "0 (no)"

[[record]]
molecule = "CC(C)CC(NC(O)[BH2-][N+](C)(C)C)C(=O)NC(Cc1ccccc1)C(=O)N[C@H]1c2ccsc2/C(=N/O)[C@H]1O (stereo partly specified)"
tgt = "786-0"
cat = "0 (no)"

[[record]]
molecule = "Cn1c(N)c(/N=N/c2ccc(S(N)(=O)=O)cc2)c(=O)n(C)c1=O"
tgt = "786-0"
cat = "0 (no)"


====

tested on: MDA-MB-435; test: NCI tumour cell line growth inhibition, 48 h
Activity calls are given as the source filed them. Rule as the data show it: active = GI50 up to about 1.1 µM and inactive = higher.
Classes used: active, inactive

[[record]]
molecule = "CC(=O)N1CCc2c([nH]c3ccc(Br)cc23)C1c1ccccc1 (stereo not given)"
tgt = "MDA-MB-435"
cat = "inactive"

[[record]]
molecule = "O=C1C(NCCF)=C(Cl)C(=O)c2ncccc21"
tgt = "MDA-MB-435"
cat = "active"

[[record]]
molecule = "O=C1NC(=O)C(F)(n2cc(F)c(=O)[nH]c2=O)C(O)N1 (stereo not given)"
tgt = "MDA-MB-435"
cat = "inactive"

[[record]]
molecule = "O=c1c2cc(S(=O)(=O)O)ccc2nc(COc2ccc(Oc3ccc(Cl)cc3Cl)cc2)n1-c1ccc(Oc2ccc(Cl)cc2)cc1Cl"
tgt = "MDA-MB-435"
cat = "inactive"

[[record]]
molecule = "O=C(OC1C(Oc2ccccc2COC(=O)C2(O)C=CCCC2=O)OC(CO)C(O)C1O)c1ccccc1 (stereo not given)"
tgt = "MDA-MB-435"
cat = "inactive"

[[record]]
molecule = "COC(=O)c1ccc(NCc2cc(O)ccc2O)cc1"
tgt = "MDA-MB-435"
cat = "inactive"

[[record]]
molecule = "CC(=O)SCCC(NC(=S)Nc1ccccc1)P(=O)(Oc1ccccc1)Oc1ccccc1 (stereo not given)"
tgt = "MDA-MB-435"
cat = "inactive"

[[record]]
molecule = "COc1ccc(/C=C2\\OC(=O)C(Cl)=C2c2ccc(OC)cc2)cc1"
tgt = "MDA-MB-435"
cat = "inactive"

[[record]]
molecule = "O=C1OC(OCC#CCOC2OC(=O)C(Cl)=C2Cl)C(Cl)=C1Cl (stereo not given)"
tgt = "MDA-MB-435"
cat = "inactive"

[[record]]
molecule = "CC1(C)OP(=O)(c2ccccc2)C=C1Sc1ccc([N+](=O)[O-])cc1[N+](=O)[O-] (stereo not given)"
tgt = "MDA-MB-435"
cat = "inactive"


====

Consider the following molecules and their measured GI50 readings.
system: SK-OV-3; assay: NCI tumour cell line growth inhibition, 48 h
Activity calls are given as the source filed them. Cut-off read from the data, not from the text of the source: active = GI50 up to about 1.1 µM and inactive = higher.
PARAMETER: GI50

[[record]]
molecule = "COC(=O)c1cc2ccc(O)c(O)c2cn1"
parameter = "GI50"
recorded_result = "27.5 µM (inactive)"

[[record]]
molecule = "CN(C)CCC(=O)N1CCc2c([nH]c3ccccc23)C1c1cccnc1 (stereo unspecified)"
parameter = "GI50"
recorded_result = "> 100 µM (inactive)"

[[record]]
molecule = "COc1ccc(/C=C2\\OC(=O)C(Cl)=C2c2ccc(OC)cc2)cc1"
parameter = "GI50"
recorded_result = "> 100 µM (inactive)"

[[record]]
molecule = "C=C1C(=O)O[C@H](c2ccoc2)C[C@@H]1[C@@]1(C)CCCC2(C)C(=O)OCC21 (stereo partly specified)"
parameter = "GI50"
recorded_result = "> 100 µM (inactive)"

[[record]]
molecule = "C/C=C\\C(CC(=O)NCCC1CN(C(=O)OCc2ccccc2)c2ccccc21)CC(=O)OC (stereo unspecified)"
parameter = "GI50"
recorded_result = "> 100 µM (inactive)"

[[record]]
molecule = "CC(=O)NC1(C)C(C)C2CC1C(C)C2(C)C (stereo unspecified)"
parameter = "GI50"
recorded_result = "> 100 µM (inactive)"

